List of IC50 values.
target: protein-protein interaction between Kras and SOS1 (biotin-tagged human Kras loaded with GDP, His-tagged human SOS1) (Homo sapiens (Human), UniProt P01116, G12D); experiment: Protein-protein interaction inhibition between Kras and SOS1 (KrasG12D-SOS PPI) using AlphaScreen; format: biochemical; details: AlphaScreen; biotin-tagged human Kras loaded with GDP, His-tagged human SOS1; read-out: KRAS G12D-SOS PPI IC50;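 further: kras produced in E. coli, Ni-coupled donor beads and streptavidin acceptor beads, excitation 680 nm with emission detected at 520–620 nm via singlet oxygen transfer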
Numbered stars: 1 amine (or outer) side, 2 acyl side, 3 side chain; on linkers, the order of the positions; unused ones are H or OH. Bridge positions count the residues as written; N and C are the ends. Square brackets hold non-standard residues; d marks the D form. Peptide text beside a SMILES is read from it. * marks the point of attachment. hPhe(3,5-F2-4-CF3) = N[C@@H](CCc1cc(F)c(C(F)(F)F)c(F)c1)C(=O)O; hPhe(3-Cl-4-CF3) = N[C@@H](CCc1ccc(C(F)(F)F)c(Cl)c1)C(=O)O; hPhe(3-F,4-CF3) = N[C@@H](CCc1ccc(C(F)(F)F)c(F)c1)C(=O)O; NEtPhe(4-CF3) = CCN[C@@H](Cc1ccc(C(F)(F)F)cc1)C(=O)O; NMePhe(4-CF3) = CN[C@@H](Cc1ccc(C(F)(F)F)cc1)C(=O)O; hPhe(4-CF3) = N[C@@H](CCc1ccc(C(F)(F)F)cc1)C(=O)O; NMePhe(4-Cl) = CN[C@@H](Cc1ccc(Cl)cc1)C(=O)O; NMedβ3hAla = C[C@H](CC(=O)[*:2])N(C)[*:1]; NMeGly(cPent) = CN[C@H](C(=O)O)C1CCCC1; NMeCha = CN[C@@H](CC1CCCCC1)C(=O)O; NMehLeu = CN[C@@H](CCC(C)C)C(=O)O; NMeAhp(2) = CCCCC[C@H](NC)C(=O)O; NMeChg = CN[C@H](C(=O)O)C1CCCCC1; NMeI = CC[C@H](C)[C@H](NC)C(=O)O; Gly(cPr) = N[C@H](C(=O)O)C1CC1; NMeD = CN[C@@H](CC(=O)O)C(=O)O; NMeL = CN[C@@H](CC(C)C)C(=O)O; NEtAla = CCN[C@@H](C)C(=O)O; NMeV = CN[C@H](C(=O)O)C(C)C; d(β3hA) = C[C@@H](N)CC(=O)O; NMeC = CN[C@@H](CS)C(=O)O; Morpholide = C1CN(*)CCO1; NMeA = CN[C@@H](C)C(=O)O; NMeAib = CNC(C)(C)C(=O)O; Piperidide = C1CCN(*)CC1; Ac5c = NC1(C(=O)O)CCCC1; Aze = O=C(O)[C@@H]1CCN1; Sar = CNCC(=O)O
Experimental readout: IC50 (nM)

INSERT INTO results (molecule, experimental_readout, unit_spec, test_value) VALUES
  ('CC[C@H](C)[C@@H]1NC(=O)[C@H](CC(C)C)N(C)C(=O)C[C@@H](C(=O)N(C)C)N(C)C(=O)[C@H](C2CCCC2)N(C)C(=O)C2(CCCC2)NC(=O)[C@@H]2CCCN2C(=O)[C@H](CCc2ccc(C(F)(F)F)c(F)c2)NC(=O)CN(C)C(=O)[C@H](CC2CCCCC2)N(C)C(=O)[C@@H]2CCN2C(=O)[C@H](C)N(C)C1=O [Compound 334] ([NMeL]I[NMeA][Aze][NMeCha][Sar][hPhe(3-F,4-CF3)]P[Ac5c][NMeGly(cPent)][NMeD]-NMe2; lactam N-11)', 'IC50', 'nM', 0.5),
  ('CC[C@H](C)[C@@H]1NC(=O)[C@H](CC(C)C)N(C)C(=O)C[C@@H](C(=O)N2CCOCC2)N(C)C(=O)[C@H](C2CCCC2)N(C)C(=O)C2(CCCC2)NC(=O)[C@@H]2CCCN2C(=O)[C@H](CCc2ccc(C(F)(F)F)c(Cl)c2)NC(=O)CN(C)C(=O)[C@H](C2CCCC2)N(C)C(=O)[C@@H]2CCN2C(=O)[C@H](C)N(C)C1=O [Compound 302] ([NMeL]I[NMeA][Aze][NMeGly(cPent)][Sar][hPhe(3-Cl-4-CF3)]P[Ac5c][NMeGly(cPent)][NMeD]-Morpholide; lactam N-11)', 'IC50', 'nM', 0.68),
  ('CC(C)C[C@H]1C(=O)N[C@@H](C2CC2)C(=O)N(C)[C@@H](C)C(=O)N2CC[C@H]2C(=O)N(C)[C@@H](CC2CCCCC2)C(=O)N(C)CC(=O)N[C@@H](CCc2ccc(C(F)(F)F)c(Cl)c2)C(=O)N2CCC[C@H]2C(=O)NC2(CCCC2)C(=O)N(C)[C@@H](C(C)C)C(=O)N[C@H](C)CC(=O)N1C [Compound 490] (cyclo([Ac5c][NMeV][d(β3hA)][NMeL][Gly(cPr)][NMeA][Aze][NMeCha][Sar][hPhe(3-Cl-4-CF3)]P))', 'IC50', 'nM', 240),
  ('CC[C@H](C)[C@@H]1NC(=O)[C@H](CC(C)C)N(C)C(=O)C[C@@H](C)N(C)C(=O)[C@H](CC(C)C)NC(=O)C(C)(C)N(C)C(=O)[C@H](CC(C)C)NC(=O)[C@H](CCc2ccc(C(F)(F)F)cc2)NC(=O)CN(C)C(=O)[C@H](Cc2ccc(Cl)cc2)N(C)C(=O)CN(C)C(=O)CN(C)C1=O [Compound 315] (cyclo(I[Sar][Sar][NMePhe(4-Cl)][Sar][hPhe(4-CF3)]L[NMeAib]L[NMedβ3hAla][NMeL]))', 'IC50', 'nM', 120),
  ('CC[C@H](C)[C@@H]1NC(=O)[C@H](CC(C)C)N(C)C(=O)C[C@@H](C(=O)N2CCOCC2)N(C)C(=O)[C@H]([C@@H](C)CC)N(C)C(=O)C2(CCCC2)NC(=O)[C@@H]2CCCN2C(=O)[C@H](CCc2cc(F)c(C(F)(F)F)c(F)c2)NC(=O)CN(C)C(=O)[C@H](Cc2ccc(C(F)(F)F)cc2)N(CC)C(=O)[C@@H]2CCN2C(=O)[C@H](C)N(C)C1=O [Compound 1364] ([NMeL]I[NMeA][Aze][NEtPhe(4-CF3)][Sar][hPhe(3,5-F2-4-CF3)]P[Ac5c][NMeI][NMeD]-Morpholide; lactam N-11)', 'IC50', 'nM', 1.2),
  ('CC[C@H](C)[C@@H]1NC(=O)[C@H](CC(C)C)N(C)C(=O)C[C@@H](C(=O)N2CCCCC2)N(C)C(=O)[C@H](C2CCCCC2)N(C)C(=O)C2(CCCC2)NC(=O)[C@H](C)N(CC)C(=O)[C@H](CCc2ccc(C(F)(F)F)c(Cl)c2)NC(=O)CN(C)C(=O)[C@H](CC2CCCCC2)N(C)C(=O)CN(C)C(=O)CN(C)C1=O [Compound 1045] ([NMeL]I[Sar][Sar][NMeCha][Sar][hPhe(3-Cl-4-CF3)][NEtAla][Ac5c][NMeChg][NMeD]-Piperidide; lactam N-11)', 'IC50', 'nM', 6.7),
  ('CCCCC[C@H]1C(=O)N[C@@H]([C@@H](C)CC)C(=O)N(C)[C@@H](C)C(=O)N2CC[C@H]2C(=O)N(C)[C@@H](CC2CCCCC2)C(=O)N(C)CC(=O)N[C@@H](CCc2ccc(C(F)(F)F)c(Cl)c2)C(=O)N2CCC[C@H]2C(=O)NC2(CCCC2)C(=O)N(C)[C@@H](C(C)C)C(=O)N(C)[C@H](C(=O)N2CCCCC2)CC(=O)N1C [Compound 1705] ([NMeAhp(2)]I[NMeA][Aze][NMeCha][Sar][hPhe(3-Cl-4-CF3)]P[Ac5c][NMeV][NMeD]-Piperidide; lactam N-11)', 'IC50', 'nM', 9.8),
  ('CC[C@H](C)[C@@H]1NC(=O)[C@H](CC(C)C)N(C)C(=O)CSC[C@@H](C(=O)N(C)C)N(C)C(=O)[C@H](C2CCCC2)N(C)C(=O)C2(CCCC2)NC(=O)[C@@H]2CCCN2C(=O)[C@H](CCc2ccc(C(F)(F)F)c(Cl)c2)NC(=O)CN(C)C(=O)[C@H](CC2CCCCC2)N(C)C(=O)CN(C)C(=O)CN(C)C1=O [Compound 2175] ({CH2CO}-[NMeL]I[Sar][Sar][NMeCha][Sar][hPhe(3-Cl-4-CF3)]P[Ac5c][NMeGly(cPent)][NMeC]-NMe2; thioether N-11)', 'IC50', 'nM', 180),
  ('CC[C@H](C)[C@@H]1NC(=O)[C@H](CCC(C)C)N(C)C(=O)C[C@@H](C(=O)N2CCOCC2)N(C)C(=O)[C@H]([C@@H](C)CC)N(C)C(=O)C2(CCCC2)NC(=O)[C@@H]2CCCN2C(=O)[C@H](CCc2ccc(C(F)(F)F)c(Cl)c2)NC(=O)CN(C)C(=O)[C@H](Cc2ccc(C(F)(F)F)cc2)N(C)C(=O)[C@@H]2CCN2C(=O)[C@H](C)NC1=O [Compound 1356] ([NMehLeu]IA[Aze][NMePhe(4-CF3)][Sar][hPhe(3-Cl-4-CF3)]P[Ac5c][NMeI][NMeD]-Morpholide; lactam N-11)', 'IC50', 'nM', 1.1);
